Tested on: NGF
Assay: Enhancing activity for NGF production in L-M cells (NGF in culture medium by enzyme immunoassay)
Format: cell-based, murine
Settings: Concentration of Sample 2 mM, 20 hours, control = 100%
measured metric: Amount of NGF Production (%)
Return type: number; implicit unit %.

Sample answers from the record:
molecule | measured metric | reported
CC(=O)OCC1OC(OC2C(O)COC(OC3C(O)C(C)(C)CC4C5=CCC6C7(C)CCC(OC8OC(C(=O)O)C(O)C(O)C8OC8OC(CO)C(O)C(O)C8OC8OC(CO)C(O)C(O)C8O)C(C)(CO)C7CCC6(C)C5(C)CCC43C)C2O)C(O)C(OC(C)=O)C1OC(C)=O (stereo not shown) | Amount of NGF Production (%) | 247.6
CC(=O)OC1COC(OC2C(O)COC(OC3C(O)C(C)(C)CC4C5=CCC6C7(C)CCC(OC8OC(C(=O)O)C(O)C(O)C8OC8OC(CO)C(O)C(O)C8OC8OC(CO)C(O)C(O)C8O)C(C)(CO)C7CCC6(C)C5(C)CCC43C)C2O)C(OC(C)=O)C1O (stereo not shown) | Amount of NGF Production (%) | 230.1
CC(=O)OCC1OC(OC2C(O)COC(OC3C(O)C(C)(C)CC4C5=CCC6C7(C)CCC(OC8OC(C(=O)O)C(O)C(O)C8OC8OC(CO)C(O)C(O)C8OC8OC(CO)C(O)C(O)C8O)C(C)(CO)C7CCC6(C)C5(C)CCC43C)C2O)C(OC(C)=O)C(OC(C)=O)C1OC(C)=O (stereo not shown) | Amount of NGF Production (%) | 307.2

Query molecule follows.
Lab note: need Amount of NGF Production (%) for CC(=O)OC1C(O)COC(OC2C(O)COC(OC3C(O)C(C)(C)CC4C5=CCC6C7(C)CCC(OC8OC(C(=O)O)C(O)C(O)C8OC8OC(CO)C(O)C(O)C8OC8OC(CO)C(O)C(O)C8O)C(C)(CO)C7CCC6(C)C5(C)CCC43C)C2O)C1O (stereo not shown) on NGF, anyone have it? 272.3
